measured-on: Protein deacetylase HDAC6 (Homo sapiens) (UniProt Q9UBN7)
Sequence (whole entry): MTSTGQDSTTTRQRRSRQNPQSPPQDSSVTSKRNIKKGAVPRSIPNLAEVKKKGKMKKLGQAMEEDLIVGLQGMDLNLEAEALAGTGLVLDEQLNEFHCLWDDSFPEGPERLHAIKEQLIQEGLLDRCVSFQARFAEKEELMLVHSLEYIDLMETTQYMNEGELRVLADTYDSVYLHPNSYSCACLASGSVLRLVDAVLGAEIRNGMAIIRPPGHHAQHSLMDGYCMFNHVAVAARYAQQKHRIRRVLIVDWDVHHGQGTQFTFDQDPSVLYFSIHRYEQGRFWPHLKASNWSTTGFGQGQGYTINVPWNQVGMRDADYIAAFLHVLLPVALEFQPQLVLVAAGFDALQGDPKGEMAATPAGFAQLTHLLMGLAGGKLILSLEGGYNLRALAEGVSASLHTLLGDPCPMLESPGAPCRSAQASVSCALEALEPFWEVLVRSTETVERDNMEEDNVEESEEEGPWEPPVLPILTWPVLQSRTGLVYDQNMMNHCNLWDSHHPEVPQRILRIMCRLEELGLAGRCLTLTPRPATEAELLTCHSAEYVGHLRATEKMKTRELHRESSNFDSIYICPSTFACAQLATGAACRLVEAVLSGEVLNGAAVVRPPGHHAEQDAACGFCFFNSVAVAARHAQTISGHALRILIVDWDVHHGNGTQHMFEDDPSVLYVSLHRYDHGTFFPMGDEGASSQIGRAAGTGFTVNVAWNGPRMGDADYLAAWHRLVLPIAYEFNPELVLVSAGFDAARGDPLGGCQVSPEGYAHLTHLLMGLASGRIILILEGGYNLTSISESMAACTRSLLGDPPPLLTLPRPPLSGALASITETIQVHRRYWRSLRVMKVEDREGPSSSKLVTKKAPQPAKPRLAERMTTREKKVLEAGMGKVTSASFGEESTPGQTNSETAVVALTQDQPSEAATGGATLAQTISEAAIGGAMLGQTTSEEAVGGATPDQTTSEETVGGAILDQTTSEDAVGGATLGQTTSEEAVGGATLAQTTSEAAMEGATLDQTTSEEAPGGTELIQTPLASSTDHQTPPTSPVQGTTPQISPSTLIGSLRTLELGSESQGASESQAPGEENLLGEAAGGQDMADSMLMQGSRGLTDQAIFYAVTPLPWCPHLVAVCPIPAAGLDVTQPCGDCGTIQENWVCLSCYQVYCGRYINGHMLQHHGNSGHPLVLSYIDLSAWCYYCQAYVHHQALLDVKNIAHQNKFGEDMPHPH
measurement-context: at 10 µM
About 150 (2.7%) of roughly 5,600 compounds showed an effect of 50% or more. Many of the other results were omitted from the sample, so strong results are more common in it than they were.
observed-property: inhibition (%)
# value in %; strip the unit string

The compound identified as C1Cc2[nH]nc(-c3nn[nH]n3)c2C1 registered its inhibition at -4.01

The compound identified as CC(=O)Nc1ncc([N+](=O)[O-])s1 registered its inhibition at -3.88

Further cases:
The compound identified as CN(C)c1ccc(/C=C2\C(=O)Nc3ccccc32)cc1 registered its inhibition at 96.3

The compound identified as NCc1ccc(S(N)(=O)=O)cc1 registered its inhibition at 0.53

The compound identified as NS(=O)(=O)c1nn2cc(-c3ccccc3)nc2s1 registered its inhibition at 82

The compound identified as O=C(Nc1ccc(F)cc1)N1CCc2ccccc2C1c1ccc(C(F)(F)F)cc1 (stereo not given) registered its inhibition at -5.96

The compound identified as O=C(CC(c1ccccc1)c1ccccc1)N1CCN(C(c2ccccc2)c2ccccc2)CC1 registered its inhibition at -2.23

The compound identified as Cc1n[nH]c2ccc(-c3cncc(OC[C@@H](N)Cc4ccccc4)c3)cc12 registered its inhibition at -5.53

The compound identified as O=C1N=C(NCc2cccs2)S/C1=C\c1ccc2ncccc2c1 registered its inhibition at 13.2

The compound identified as CC(=O)N(OCc1ccccc1)[C@@H]1c2cc(C#N)ccc2OC(C)(C)[C@H]1O registered its inhibition at 0.48
